assay: chemical genetic growth profiling, strain panel (AID 1159580);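 also: tested at 20 µM; growth read once vehicle control cultures reached saturation at 30 °C; 1 = growth at the plate median or of vehicle wells; lower values mean less growth of the strain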; conditions: S. cerevisiae deletion strains, growth OD, locus YPL204W, strain HRR25, hits give low values
The whole screen tested about 5,500 compounds, of which about 2,000 (36%) were called active. Roughly 18% stayed inconclusive and do not appear here. The list shows a part of the results.
Reported normalized growth maps to class as: 0 (below 0.6), 1 (0.6 to below 0.9), 2 (0.9 or more)

The examples below pair each entry with its known result.
> print(dat)
                                   compound  answer.label
1  N#CC(C(=O)Nc1cccc(C(F)(F)F)c1)C(=S)Nc1ccccc1Cl (configuration not stated)             2
2  COC(=O)c1cc([N+](=O)[O-])ccc1S(=O)(=O)Cc1ccc(Cl)cc1             2
3         CC(C)Sc1c(Cl)cccc1NC(=O)Nc1ccccc1             1
4           Cc1ccc2nc3c(nc2c1)-c1ccccc1C3=O             0
5            COC(=O)c1cc(I)c(OC(C)=O)c(I)c1             2

In: Dear colleague, I would appreciate it if you could identify the bin for O=S(=O)(Nc1cc(C(F)(F)F)cc(C(F)(F)F)c1)c1ccc(Cl)s1 and reply at your convenience.
Out: 1

In: Same for Cn1cc(Br)c(-c2cccc(NS(=O)(=O)c3ccc(Cl)cc3)c2)n1
Out: 2

In: Same read-out for Cc1cc(N=Cc2cc(Cl)cc(Cl)c2O)no1 ?
Out: 0

In: Another compound to look at: O=C(Nc1ccccc1Sc1ccc(C(F)(F)F)cc1[N+](=O)[O-])C(Cl)Cl
Out: 2

In: Same question for CCOC(=O)c1ccc(N=Cc2cc(Cl)cc(Cl)c2O)cc1 please.
Out: 0

====

experiment: chemical genetic growth profiling, strain panel (AID 1159580);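 also: tested at 20 µM; growth read once vehicle control cultures reached saturation at 30 °C; 1 = growth at the plate median or of vehicle wells; lower values mean less growth of the strain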; conditions: S. cerevisiae deletion strains, growth OD, locus YDL017W, strain CDC7, hits give low values
In all, about 5,500 compounds went through this assay and about 2,000 (36%) were called active. About 18% were inconclusive and are not listed. The list shows a part of the results.
Items are presented alongside their recorded normalized growth.
Number only, please.

Known results for compounds:
> print(dat)
                                   compound  value
1  COc1cc(C2SCCS2)cc(Br)c1OC(=O)NC(=O)c1c(Cl)cccc1Cl  0.958
2            COC(=O)c1cc(I)c(OC(C)=O)c(I)c1  0.961
3  CC(C)(C)c1ccc(-c2cc(NC(=O)c3ccc(Cl)cc3)n[nH]2)cc1      1
4  Cc1csc2c(N3CCN(C(=S)Nc4ccc(C(F)(F)F)cc4)CC3)ncnc12  0.992
5  N#CC(C(=O)Nc1cccc(C(F)(F)F)c1)C(=S)Nc1ccccc1Cl (stereo not given)  0.985

In: Endpoint output: normalized growth of CC(C)c1cccc(C(C)C)c1OC(=O)NC(=O)c1c(Cl)cccc1Cl . Value?
Out: 0.985

In: Also need FC(F)(F)c1ccncc1-c1nc(-c2ccc(Cl)cc2)cs1 , thanks.
Out: 0.991

In: // query: Cc1cc(C)c2cc(C(=O)NCCNc3ccc(C(F)(F)F)cn3)[nH]c2c1
Out: 0.98

In: Note, next up: O=[N+]([O-])c1ccc(NCc2ccc(Cl)c(Cl)c2)nc1
Out: 0.946

In: // next record FC(F)(F)c1c2c(nc3cc(-c4ccco4)nn13)CCC2
Out: 0.971
